molecular target: integrin α4β1 (Homo sapiens, UniProt P05556+P13612); construct: cell strain Jurkat (ATCC TIB-152) of human T cells, known to express integrin α4β1; host or cells: Jurkat (human T cell line); test: VCAM antagonist activity (VCAM-1/α4β1 binding assay); format: cell-based; conditions: Jurkat cells binding to VCAM-1; read-out: VCAM antagonistic activity (IC50) α4β1
Listed next: entries and their corresponding IC50.

Known results for molecules:
molecule=CCC(CC)(C(=O)N[C@@H](Cc1ccc(OCc2c(Cl)cccc2Cl)cc1)C(=O)O)C(=O)N1C[C@@H](O)[C@@H](O)C1 tested_target="integrin α4β1 (Homo sapiens, UniProt P05556+P13612)" attribute_measured=IC50 val="100 to 2000 nM"
molecule=CCC(CC)(C(=O)N[C@@H](Cc1ccc(OCc2c(Cl)cccc2Cl)cc1)C(=O)O)C(=O)N1C[C@H](O)C[C@H]1C(=O)OC tested_target="integrin α4β1 (Homo sapiens, UniProt P05556+P13612)" attribute_measured=IC50 val="100 to 2000 nM"
molecule=CCC(CC)(C(=O)N[C@@H](Cc1ccc(OCc2c(Cl)cccc2Cl)cc1)C(=O)O)C(=O)N1CCC[C@@H]1C(N)=O tested_target="integrin α4β1 (Homo sapiens, UniProt P05556+P13612)" attribute_measured=IC50 val="20 to 100 nM"

*Q* Query: IC50; subject: "CCC(CC)(C(=O)N[C@@H](Cc1ccc(NC(=O)c2c(F)cccc2C(F)(F)F)cc1)C(=O)O)C(=O)N1CCCC1"
*A* 20 to 100 nM

*Q* Query: IC50; subject: "CCC(CC)(C(=O)N[C@@H](Cc1ccc(OCc2c(Cl)cccc2Cl)cc1)C(=O)O)C(=O)N1CCCCC1"
*A* 100 to 2000 nM

*Q* Query: IC50; subject: "CCC(CC)(C(=O)N[C@@H](Cc1ccc(OCc2c(Cl)cccc2Cl)cc1)C(=O)O)C(=O)N1CCC(O)CC1"
*A* 100 to 2000 nM

* * *

Molecular target: integrin α4β7 (Homo sapiens, UniProt P13612+P26010)
Construct: lymphoma cell strain RPMI-8866 of human B cells, known to express integrin α4β7; endogenous in cells; host or cells: RPMI-8866 (human B lymphoma cell line)
Sequence (P13612 34-1032): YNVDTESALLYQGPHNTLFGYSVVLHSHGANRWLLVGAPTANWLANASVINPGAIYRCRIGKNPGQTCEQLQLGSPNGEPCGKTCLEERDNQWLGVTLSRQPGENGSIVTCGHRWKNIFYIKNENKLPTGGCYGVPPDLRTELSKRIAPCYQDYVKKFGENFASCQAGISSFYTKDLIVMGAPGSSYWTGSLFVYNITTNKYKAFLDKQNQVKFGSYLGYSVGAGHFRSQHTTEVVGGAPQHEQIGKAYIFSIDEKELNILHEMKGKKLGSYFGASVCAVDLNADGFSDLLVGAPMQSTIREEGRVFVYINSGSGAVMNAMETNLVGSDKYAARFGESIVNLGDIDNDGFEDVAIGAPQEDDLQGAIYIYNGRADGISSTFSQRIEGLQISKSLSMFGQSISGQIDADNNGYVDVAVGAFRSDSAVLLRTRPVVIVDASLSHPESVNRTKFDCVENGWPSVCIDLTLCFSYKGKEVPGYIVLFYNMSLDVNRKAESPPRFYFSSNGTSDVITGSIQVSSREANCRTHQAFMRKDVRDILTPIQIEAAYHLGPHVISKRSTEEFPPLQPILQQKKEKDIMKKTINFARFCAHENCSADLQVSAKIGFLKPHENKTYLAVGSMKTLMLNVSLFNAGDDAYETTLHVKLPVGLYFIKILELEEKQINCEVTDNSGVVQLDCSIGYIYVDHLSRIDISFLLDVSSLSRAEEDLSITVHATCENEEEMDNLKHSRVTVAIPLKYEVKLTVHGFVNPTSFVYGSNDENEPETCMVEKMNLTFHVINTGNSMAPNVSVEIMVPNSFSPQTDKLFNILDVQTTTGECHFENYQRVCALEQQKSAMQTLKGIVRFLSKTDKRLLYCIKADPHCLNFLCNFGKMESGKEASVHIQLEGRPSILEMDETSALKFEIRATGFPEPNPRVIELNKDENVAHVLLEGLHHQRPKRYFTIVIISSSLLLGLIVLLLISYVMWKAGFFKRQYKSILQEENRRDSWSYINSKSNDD
Sequence (P26010 20-798): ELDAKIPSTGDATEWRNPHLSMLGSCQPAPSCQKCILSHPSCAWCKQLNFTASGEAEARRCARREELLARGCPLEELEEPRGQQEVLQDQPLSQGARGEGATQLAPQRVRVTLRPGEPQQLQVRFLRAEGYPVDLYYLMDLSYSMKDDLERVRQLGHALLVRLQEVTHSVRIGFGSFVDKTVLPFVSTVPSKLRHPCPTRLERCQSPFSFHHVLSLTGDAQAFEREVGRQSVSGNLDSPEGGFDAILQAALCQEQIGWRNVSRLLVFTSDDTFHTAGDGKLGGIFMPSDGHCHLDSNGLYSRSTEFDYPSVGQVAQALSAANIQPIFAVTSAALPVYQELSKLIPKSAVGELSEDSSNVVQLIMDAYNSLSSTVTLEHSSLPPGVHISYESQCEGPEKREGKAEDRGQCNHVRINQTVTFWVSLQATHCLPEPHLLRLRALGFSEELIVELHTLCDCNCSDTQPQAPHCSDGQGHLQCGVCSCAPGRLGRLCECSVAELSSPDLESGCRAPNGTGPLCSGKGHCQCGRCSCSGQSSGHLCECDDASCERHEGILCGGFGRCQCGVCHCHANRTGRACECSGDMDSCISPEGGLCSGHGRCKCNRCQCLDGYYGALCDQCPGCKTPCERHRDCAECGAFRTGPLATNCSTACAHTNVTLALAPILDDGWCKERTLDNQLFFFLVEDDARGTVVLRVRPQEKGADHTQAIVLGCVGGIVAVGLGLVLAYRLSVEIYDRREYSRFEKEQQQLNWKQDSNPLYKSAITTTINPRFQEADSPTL
Assay: VCAM antagonistic activity (VCAM-1/α4β7 binding assay)
Assay type: cell-based
Conditions: RPMI-8866 cells binding to VCAM-1; read-out: VCAM antagonistic activity (IC50) α4β7
pIC50: −log10 of the molar value.
Attribute measured: pIC50

compound=CCC(CC)(C(=O)N[C@@H](Cc1ccc(OCc2c(Cl)cccc2Cl)cc1)C(=O)O)C(=O)N1CC[C@H](N)C1 val="7.00 to 7.70"
compound=CCC(CC)(C(=O)N[C@@H](Cc1ccc(NC(=O)c2cc(Br)ccc2Cl)cc1)C(=O)O)C(=O)N1CCCC1 val="> 7.70"

*Q* Query: pIC50; subject: "CCC(CC)(C(=O)NCCc1ccc(O)cc1)C(=O)N[C@@H](Cc1ccc(OCc2c(Cl)cccc2Cl)cc1)C(=O)O"
*A* 5.70 to 7.00

*Q* Query: pIC50; subject: "CN(C)C(=O)C1(C(=O)N[C@@H](Cc2ccc(OCc3c(Cl)cccc3Cl)cc2)C(=O)O)CCOCC1"
*A* > 7.70

*Q* Query: pIC50; subject: CCC(CC)(C(=O)NC(Cc1ccc(OCc2c(Cl)cccc2Cl)cc1)C(=O)O)C(=O)N1CCC(N)C1 (mixture of isomers)
*A* > 7.70

*Q* Query: pIC50; subject: "CCC(CC)(C(=O)N[C@@H](Cc1ccc(NC(=O)c2nc(N3CCCCC3)ncc2Cl)cc1)C(=O)O)C(=O)N1CCCC1"
*A* > 7.70

*Q* Query: pIC50; subject: "C#CCn1c(=O)n(-c2ccc(C[C@H](NC(=O)C(CC)(CC)C(=O)N3CCCC3)C(=O)O)cc2)c(=O)c2ccccc21"
*A* > 7.70

*Q* Query: pIC50; subject: "CCC(CC)(C(=O)N[C@@H](Cc1ccc(OCc2c(Cl)cccc2Cl)cc1)C(=O)O)C(=O)N1CC[C@@H](O)C1"
*A* > 7.70

*Q* Query: pIC50; subject: CC1(C)CC2CC(C)(CN2C(=O)C2(C(=O)NC(Cc3ccc(OCc4c(Cl)cccc4Cl)cc3)C(=O)O)CCOCC2)C1 (centres unmarked)
*A* 5.70 to 7.00

* * *

target: integrin α4β7 (Homo sapiens, UniProt P13612+P26010); construct: lymphoma cell strain RPMI-8866 of human B cells, known to express integrin α4β7; endogenous in cells; host or cells: RPMI-8866 (human B lymphoma cell line); experiment: VCAM antagonistic activity (VCAM-1/α4β7 binding assay); format: cell-based; settings: RPMI-8866 cells binding to VCAM-1; read-out: VCAM antagonistic activity (IC50) α4β7
Attribute measured: IC50

Known results for molecules:
molecule=CN(C)C(=O)C1(C(=O)N[C@@H](Cc2ccc(OCc3c(Cl)cccc3Cl)cc2)C(=O)O)CC1 attribute_measured=IC50 val="100 to 2000 nM"
molecule=CCC(CC)(C(=O)N[C@@H](Cc1ccc(OCc2c(Cl)cccc2Cl)cc1)C(=O)O)C(=O)N1CCC(=O)C1 attribute_measured=IC50 val="< 20 nM"
molecule=CCC(CC)(C(=O)N[C@@H](Cc1ccc(NC(=O)c2nc(SC)ncc2Cl)cc1)C(=O)O)C(=O)N1CCCC1 attribute_measured=IC50 val="< 20 nM"

*Q* For the record "CCC(CC)(C(=O)N[C@@H](Cc1ccc(NC(=O)c2c(F)cccc2C(F)(F)F)cc1)C(=O)O)C(=O)N1CCCC1" , what value of IC50 is listed for integrin α4β7 (Homo sapiens, UniProt P13612+P26010)?
*A* < 20 nM

*Q* For the record "O=C(O)[C@H](Cc1ccc(OCc2c(Cl)cccc2Cl)cc1)NC(=O)C1(C(=O)N2CC[C@@H](O)C2)CCOCC1" , what value of IC50 is listed for integrin α4β7 (Homo sapiens, UniProt P13612+P26010)?
*A* < 20 nM

*Q* For the record "CN(C(=O)C1(C(=O)N[C@@H](Cc2ccc(OCc3c(Cl)cccc3Cl)cc2)C(=O)O)CC1)c1ccccc1" , what value of IC50 is listed for integrin α4β7 (Homo sapiens, UniProt P13612+P26010)?
*A* 100 to 2000 nM

*Q* For the record "CCC(CC)(C(=O)N[C@@H](Cc1ccc(OCc2c(Cl)cccc2Cl)cc1)C(=O)O)C(=O)N1CC[C@H](O)C1" , what value of IC50 is listed for integrin α4β7 (Homo sapiens, UniProt P13612+P26010)?
*A* < 20 nM

*Q* For the record "CCC(CC)(C(=O)N[C@@H](Cc1ccc(OCc2c(Cl)cccc2Cl)cc1)C(=O)O)C(=O)N1CCSCC1" , what value of IC50 is listed for integrin α4β7 (Homo sapiens, UniProt P13612+P26010)?
*A* 20 to 100 nM

*Q* For the record "CCC(CC)(C(=O)N[C@@H](Cc1ccc(OCc2c(Cl)cccc2Cl)cc1)C(=O)O)C(=O)N1C[C@H](O)C[C@H]1C(=O)OC" , what value of IC50 is listed for integrin α4β7 (Homo sapiens, UniProt P13612+P26010)?
*A* < 20 nM

*Q* For the record "CCC(CC)(C(=O)N[C@@H](Cc1ccc(OCc2c(Cl)cccc2Cl)cc1)C(=O)O)C(=O)N1CCN(c2ccc(O)cc2)CC1" , what value of IC50 is listed for integrin α4β7 (Homo sapiens, UniProt P13612+P26010)?
*A* 100 to 2000 nM
